Origin of measurements: paper PMC9636267

# Measured On: T1, HCoV-229E S ectodomain (17–1115 aa), 229E S trimer (human coronavirus 229E, UniProt P15423 17-1115)
# T1 chain: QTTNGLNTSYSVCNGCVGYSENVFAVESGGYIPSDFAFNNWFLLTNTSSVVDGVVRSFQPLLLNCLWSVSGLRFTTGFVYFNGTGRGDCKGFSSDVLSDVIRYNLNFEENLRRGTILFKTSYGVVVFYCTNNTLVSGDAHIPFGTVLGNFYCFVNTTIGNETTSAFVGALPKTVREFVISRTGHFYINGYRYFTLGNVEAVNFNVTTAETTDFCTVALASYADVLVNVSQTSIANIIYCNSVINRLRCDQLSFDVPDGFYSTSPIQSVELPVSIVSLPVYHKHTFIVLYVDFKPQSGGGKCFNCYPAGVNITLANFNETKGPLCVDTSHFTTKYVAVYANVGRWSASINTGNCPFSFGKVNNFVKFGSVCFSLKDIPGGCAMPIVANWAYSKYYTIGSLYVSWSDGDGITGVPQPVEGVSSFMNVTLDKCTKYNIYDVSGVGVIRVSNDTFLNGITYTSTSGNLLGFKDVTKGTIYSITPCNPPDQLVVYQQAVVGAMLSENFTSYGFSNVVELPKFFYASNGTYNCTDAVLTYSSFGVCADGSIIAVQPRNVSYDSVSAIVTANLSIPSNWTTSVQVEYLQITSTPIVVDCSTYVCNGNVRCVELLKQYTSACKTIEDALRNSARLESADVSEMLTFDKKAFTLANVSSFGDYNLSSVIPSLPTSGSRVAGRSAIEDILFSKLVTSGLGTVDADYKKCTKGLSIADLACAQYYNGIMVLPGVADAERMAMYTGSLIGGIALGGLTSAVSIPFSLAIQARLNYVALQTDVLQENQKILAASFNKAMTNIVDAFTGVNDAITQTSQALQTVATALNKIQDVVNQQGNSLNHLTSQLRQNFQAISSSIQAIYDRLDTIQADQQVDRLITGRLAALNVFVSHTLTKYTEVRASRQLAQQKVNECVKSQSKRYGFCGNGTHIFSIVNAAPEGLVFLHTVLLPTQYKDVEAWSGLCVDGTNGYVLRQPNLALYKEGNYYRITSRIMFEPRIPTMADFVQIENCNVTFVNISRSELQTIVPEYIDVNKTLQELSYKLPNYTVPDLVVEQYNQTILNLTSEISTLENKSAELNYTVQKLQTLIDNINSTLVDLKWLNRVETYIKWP
# Assay Method Text: SPR
Readout Label: Kd
Show the value, then the unit it is measured in.

Provide each entry's Kd from the list below.
1. Fab B10 (Fab, V domains shown) VH: EVQLVESGGGLVQPGGSLRLSCAASGFNLSSSSMHWVRQAPGKGLEWVAYIYPSYSSTYYADSVKGRFTISADTSKNTAYLQMNSLRAEDTAVYYCARASGHFWAYGFDYWGQGTLVTVSS VL: DIQMTQSPSSLSASVGDRVTITCRASQSVSSAVAWYQQKPGKAPKLLIYSASSLYSGVPSRFSGSRSGTDFTLTISSLQPEDFATYYCQQYSYSGPFTFGQGTKVEIK
2. Fab B09 (Fab, V domains shown) VH: EVQLVESGGGLVQPGGSLRLSCAASGFNLSYSSIHWVRQAPGKGLEWVAYIYPYYGSTYYADSVKGRFTISADTSKNTAYLQMNSLRAEDTAVYYCARSWSPSSSYPGYGGLDYWGQGTLVTVSS VL: DIQMTQSPSSLSASVGDRVTITCRASQSVSSAVAWYQQKPGKAPKLLIYSASSLYSGVPSRFSGSRSGTDFTLTISSLQPEDFATYYCQQSWSYYGSLFTFGQGTKVEIK
3. Fab C04 (Fab, V domains shown) VH: EVQLVESGGGLVQPGGSLRLSCAASGFNISSSYIHWVRQAPGKGLEWVASIYSSYGYTYYADSVKGRFTISADTSKNTAYLQMNSLRAEDTAVYYCARWWASVGGAGGGLDYWGQGTLVTVSS VL: DIQMTQSPSSLSASVGDRVTITCRASQSVSSAVAWYQQKPGKAPKLLIYSASSLYSGVPSRFSGSRSGTDFTLTISSLQPEDFATYYCQQGYGWLITFGQGTKVEIK
4. Fab A10 (Fab, V domains shown) VH: EVQLVESGGGLVQPGGSLRLSCAASGFNISSYYMHWVRQAPGKGLEWVAYISPYSGYTYYADSVKGRFTISADTSKNTAYLQMNSLRAEDTAVYYCARAHYPYHGSYWGLDYWGQGTLVTVSS VL: DIQMTQSPSSLSASVGDRVTITCRASQSVSSAVAWYQQKPGKAPKLLIYSASSLYSGVPSRFSGSRSGTDFTLTISSLQPEDFATYYCQQAGYVPITFGQGTKVEIK

Solution:
["2.5 nM", "33 nM", "4.4 nM", "6.3 nM"]
